# Tested on: HCC1569;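 note: TDF is a line of transformed human dermal fibroblasts of mesenchymal origin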
# protocol description: H1.0 immunofluorescence intensity relative to DMSO (% of DMSO); higher = stronger H1.0 induction, active = 140 or more
# conditions used: concentration: 10 µM; 24 h
A collection of compounds and their measured H1.0 immunofluorescence intensity
Please reply with the value in numeric form only.

Give a short answer stating reported H1.0 immunofluorescence intensity for Nc1ccccc1NC(=O)CCCCCCC(=O)Nc1ccccc1 [N~1~-(2-aminophenyl)-N~8~-phenyloctanediamide] .
145

Moving on to another compound below.
Hello, please tell me recorded H1.0 immunofluorescence intensity for this one: Cc1ccc(S(=O)(=O)NC(Cc2ccccc2)C(=O)CCl)cc1 (stereo not drawn)
113

meta.source: the supplement of paper PMC7156485
